# protocolNotes: Cytotoxicity (MTT) assay of single and dual combinatory drugs
# Format: cell-based
# measurementConditions: human, HYDROXYCHLOROQUINE-AZITHROMYCIN series; 2 μg/mL; read-out: Cell Viability (%)
measuredProperty: viability at 48 h, 2 μg/mL (%)
Give the value, in units of %, as a plain number.

>  <compound>
CCN(CCO)CCCC(C)Nc1ccnc2cc(Cl)ccc12 (centres unmarked) [HCQ, Hydroxychloroquine]

>  <measuredProperty>
viability at 48 h, 2 μg/mL

>  <unitAbbrev>
%

>  <valueObserved>
91

$$$$

Pending compound:
Recorded result, CC[C@H]1OC(=O)[C@H](C)[C@@H](O[C@H]2C[C@@](C)(OC)[C@@H](O)[C@H](C)O2)[C@H](C)[C@@H](O[C@@H]2O[C@H](C)C[C@H](N(C)C)[C@H]2O)[C@](C)(O)C[C@@H](C)CN(C)[C@H](C)[C@@H](O)[C@]1(C)O , viability at 48 h, 2 μg/mL: 94.2
